Provenance of the data: ChEMBL document CHEMBL1130069

Molecular target: UniProt:P09917
Sequence (P09917 whole entry): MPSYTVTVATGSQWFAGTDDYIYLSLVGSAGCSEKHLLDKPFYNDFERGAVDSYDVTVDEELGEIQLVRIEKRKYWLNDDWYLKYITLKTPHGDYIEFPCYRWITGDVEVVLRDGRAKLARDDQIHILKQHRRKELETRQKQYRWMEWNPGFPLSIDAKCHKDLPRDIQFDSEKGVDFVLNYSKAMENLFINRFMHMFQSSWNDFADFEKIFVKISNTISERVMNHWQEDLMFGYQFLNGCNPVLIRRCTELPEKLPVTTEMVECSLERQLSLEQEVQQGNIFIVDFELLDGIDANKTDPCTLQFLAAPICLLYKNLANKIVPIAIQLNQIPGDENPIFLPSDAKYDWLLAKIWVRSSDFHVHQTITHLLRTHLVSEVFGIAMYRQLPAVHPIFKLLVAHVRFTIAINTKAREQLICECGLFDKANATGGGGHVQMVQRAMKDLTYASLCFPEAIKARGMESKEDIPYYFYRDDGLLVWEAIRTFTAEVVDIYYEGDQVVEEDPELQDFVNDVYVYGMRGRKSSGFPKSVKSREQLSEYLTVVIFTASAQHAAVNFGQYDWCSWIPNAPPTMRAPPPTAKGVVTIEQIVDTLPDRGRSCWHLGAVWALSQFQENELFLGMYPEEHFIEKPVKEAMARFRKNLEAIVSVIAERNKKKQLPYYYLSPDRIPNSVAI
Test: Inhibition of 5-lipoxygenase (5-LO) measured as LTB4 production in human whole blood stimulated with calcium ionophore (A23187).
PARAMETER MEASURED: IC50 (µM)
Kindly answer with a numeric value in µM, unit omitted.

Task: Would you please give the reported IC50 of CC(c1cc2cc(Cl)ccc2o1)N(O)C(N)=O (stereo not given) with UniProt:P09917?
Output: 1.6

Task: Would you please give the reported IC50 of CC(/C=C/c1ccsc1)N(O)C(N)=O (stereo not given) with UniProt:P09917?
Output: 0.85

Task: Would you please give the reported IC50 of Cc1ccc(C(C)N(O)C(N)=O)cc1 (stereo not given) with UniProt:P09917?
Output: 1

Task: Would you please give the reported IC50 of CC(C#Cc1ccco1)N(O)C(N)=O (stereo not given) with UniProt:P09917?
Output: 0.9

Task: Would you please give the reported IC50 of NC(=O)N(O)Cc1ccc(/C=C/c2cccs2)s1 with UniProt:P09917?
Output: 0.83
